Values compiled from paper PMC9482650.

# Measured Target: FRMPD4, Q14CM0
# Sequence (Q14CM0 67-160): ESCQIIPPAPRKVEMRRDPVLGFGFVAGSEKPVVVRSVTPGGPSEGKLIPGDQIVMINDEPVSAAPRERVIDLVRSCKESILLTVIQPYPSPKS
# Measurement Protocol: holdup assay
# Design: key: below the threshold = too weak to quantify, mostly under pKd 3.1 to 4
# Experimental Parameters: plain residues with an end cap or a label only (N-terminal biotin on a linker: ttds)
Quantity Measured: pKd

[[record]]
binder = "EVVHTPETSV [SLC16A3, O15427]"
value = "below the threshold"

[[record]]
binder = "KKYVDAETSL [SLC4A7, Q9Y6M7]"
value = 4.4

[[record]]
binder = "RPLPRKVSQL [DOCK4, Q8N1I0]"
value = "below the threshold"

[[record]]
binder = "SKPTRRETEV [HPV35-E6, P27228]"
value = "below the threshold"

[[record]]
binder = "EMDRRPATVV [PLCB4, Q15147]"
value = 3.55

[[record]]
binder = "NDPAWDETNL [ARHGEF7, Q14155;Q14155-1]"
value = 4.66

[[record]]
binder = "VDFPPKESSL [ACVR2A, P27037]"
value = "below the threshold"

[[record]]
binder = "RLPKIKETTV [FRMPD4, Q14CM0]"
value = 3.4

[[record]]
binder = "SGSRPSATVV [HPV73-E6, Q82005]"
value = "below the threshold"

[[record]]
binder = "FHPLGADSQV [SLC2A1, P11166]"
value = "below the threshold"

[[record]]
binder = "PVRVCEETSL [OTULIN, Q96BN8]"
value = 4.59

[[record]]
binder = "SSLQSLETSV [ATP2B4, P23634]"
value = "below the threshold"

[[record]]
binder = "QRQARSETLV [HPV59-E6, Q81964]"
value = "below the threshold"

[[record]]
binder = "RLQRRRETQV [HPV18-E6, P06463]"
value = "below the threshold"

[[record]]
binder = "DKDPHSETAL [TMIGD1, Q6UXZ0]"
value = 4.34

[[record]]
binder = "RHTTSTETAV [HPV30-E6, P36809]"
value = "below the threshold"

[[record]]
binder = "PRVKPQRSKV [PPP1R13L, Q8WUF5]"
value = "below the threshold"

